Test system: HT29 colon
test name: NCI-60 one-dose screen, 48 h
condition label: 10 µM unless noted
About 83,000 compounds went through this panel and 20% of them were active in at least one assay; those are over-represented in the sample as a whole. Activity calls are given as the source filed them. How the source made its calls: active means growth percent below 10; inactive means the rest.
Your reply should match one of these outcome classes. 1 for active, -1 for inactive

Examples from the recorded data:
[[record]]
compound = "C[N+](C)(C/C=C/c1ccccc1)Cc1ccccc1"
assigned_label = -1

[[record]]
compound = "Cn1cc(/C=C2/C(=O)Nc3ccccc32)c2ccccc21"
assigned_label = -1

[[record]]
compound = "CC1(C)OC(=O)C(=Cc2cccc(Br)c2)C(=O)O1"
assigned_label = -1

[[record]]
compound = "O=C(c1ccc(Cl)cc1Cl)N1c2ccccc2Sc2ccccc21"
assigned_label = -1

[[record]]
compound = "COc1cc(-c2nc3occn3c2-c2ccnc(NCCCNS(=O)(=O)c3ccccc3)n2)ccc1F"
assigned_label = -1


IN: Which outcome did this test record for the compound `Cc1ccc(/C=C(\C#N)C(=O)Nc2ncc(Cc3cc(Cl)ccc3Cl)s2)o1` ?
OUT: -1

IN: Which outcome did this test record for the compound `NC(=O)c1ccc(NC(=O)c2oc3ccccc3c2-c2cnn(-c3ccccc3)c2)cc1` ?
OUT: 1

IN: Which outcome did this test record for the compound `CC(=O)N(Cc1ccccc1)c1nc2ccc(O)c(CN(C)C)c2s1` ?
OUT: -1
